// data source = patent US20200207837A1

assay_target: T1, activated KLK8 (human KLK8, C-terminal His tag, pro-KLK8 activated with thermolysin) (UniProt O60259 33-260)
T1 chain: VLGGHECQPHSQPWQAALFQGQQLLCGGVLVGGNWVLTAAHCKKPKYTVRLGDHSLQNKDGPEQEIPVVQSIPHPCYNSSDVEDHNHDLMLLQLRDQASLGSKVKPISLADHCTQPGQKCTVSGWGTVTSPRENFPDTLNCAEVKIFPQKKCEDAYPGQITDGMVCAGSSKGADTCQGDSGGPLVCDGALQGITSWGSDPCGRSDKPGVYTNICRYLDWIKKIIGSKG
test_summary: peptide substrate degradation inhibition
readout_kind: IC50

Task: Which IC50 reading was recorded for the binder KLK4/KLK8 inhibitory peptide K41024 (designed binder) GSGMKETAAAKFERQHMDSPDLGTDDDDKAMADIGSANSDPQFGLFSKYRTPNCTRYVVNGCSRVYDPVCGSDMSTYANECTLCMKIREGGHNIKIIRNGPCGASAAA ?
Output: 8 nM

Task: Which IC50 reading was recorded for the binder KLK4 inhibitory peptide K40005 (designed binder) GSGMKETAAAKFERQHMDSPDLGTDDDDKAMADIGSANSDPQFGLFSKYRTPNCSQQAMGACQRIYKPVCGSDMSTYANECTLCMKIREGGHNIKIIRNGPCGASAAA ?
Output: > 1000 nM

Task: Which IC50 reading was recorded for the binder KLK4/KLK8 inhibitory peptide K41042 (designed binder) GSGMKETAAAKFERQHMDSPDLGTDDDDKAMADIGSANSDPQFGLFSKYRTPNCSRYRREGCNRMYNPVCGSDMSTYANECTLCMKIREGGHNIKIIRNGPCGASAAA ?
Output: 17.5 nM

Task: Which IC50 reading was recorded for the binder KLK4/KLK8 inhibitory peptide K41041 (designed binder) GSGMKETAAAKFERQHMDSPDLGTDDDDKAMADIGSANSDPQFGLFSKYRTPNCQRYSQWGCTRQLDPVCGSDMSTYANECTLCMKIREGGHNIKIIRNGPCGASAAA ?
Output: 11.4 nM

Task: Which IC50 reading was recorded for the binder KLK1 inhibitory peptide K10071 (designed binder) GSGMKETAAAKFERQHMDSPDLGTDDDDKAMADIGSANSDPQFGLFSKYRTPNCDQNKYRDCHYYYKPVCGSDMSTYANECTLCMKIREGGHNIKIIRNGPCGASAAA ?
Output: > 1000 nM

Task: Which IC50 reading was recorded for the binder KLK1 inhibitory peptide K10061 (designed binder) GSGMKETAAAKFERQHMDSPDLGTDDDDKAMADIGSANSDPQFGLFSKYRTPNCARNNIVDCFYYYKPVCGSDMSTYANECTLCMKIREGGHNIKIIRNGPCGASAAA ?
Output: > 1000 nM

Task: Which IC50 reading was recorded for the binder KLK4 inhibitory peptide K40003 (designed binder) GSGMKETAAAKFERQHMDSPDLGTDDDDKAMADIGSANSDPQFGLFSKYRTPNCELYVEDVCQRIFKPVCGSDMSTYANECTLCMKIREGGHNIKIIRNGPCGASAAA ?
Output: > 1000 nM

Task: Which IC50 reading was recorded for the binder KLK1 inhibitory peptide K10066 (designed binder) GSGMKETAAAKFERQHMDSPDLGTDDDDKAMADIGSANSDPQFGLFSKYRTPNCSVALRDICWWTSEPVCGSDMSTYANECTLCMKIREGGHNIKIIRNGPCGASAAA ?
Output: > 1000 nM

Task: Which IC50 reading was recorded for the binder KLK4 inhibitory peptide K40004 (designed binder) GSGMKETAAAKFERQHMDSPDLGTDDDDKAMADIGSANSDPQFGLFSKYRTPNCEHAQLGVCQKLYQPVCGSDMSTYANECTLCMKIREGGHNIKIIRNGPCGASAAA ?
Output: > 1000 nM
